experiment: Antioxidant activity assessed as DPPH radical scavenging activity at 500 uM by spectrophotometry relative to control; type: physicochemical
value type: Activity (%)
// note: answer is a bare numeric in %

CC1(C)OCC(C[Se]c2ccccc2)O1 (centres undefined)
1.3
CC1(C)OCC(CSc2ccccc2)O1 (centres undefined)
1.65
CC1(C)OCC(C[Te]c2ccccc2)O1 (centres undefined)
77.86

Summary for this compound, CC1(C)OCC(CO)O1 (centres undefined) : Activity is 0.98

----------
The molecules listed here are annotated with their Activity.
test: Antioxidant activity assessed as DPPH radical scavenging activity at 100 uM by spectrophotometry relative to control; type: physicochemical
Your answer is read as %, so omit the unit and give the number.

GET /value?item= CC1(C)OCC(CSc2ccccc2)O1 (centres undefined) &field=Activity returns 0.5

# molecule CC1(C)OCC(CO)O1 (centres undefined) ; its Activity = 0.98

Form field Activity, entry CC1(C)OCC(C[Te]c2ccccc2)O1 (centres undefined) : 22.55

Given item CC1(C)OCC(C[Se]c2ccccc2)O1 (centres undefined) , the value recorded as its Activity is 0.63

----------
assay: Antioxidant activity assessed as inhibition of Fe2+/ascorbic acid-induced linoleic acid peroxidation at 100 uM by spectrophotometry relative to control; format: physicochemical; design: scale not given: the % may be the effect or the level left
List of Activity values.
Answer with the figure and its unit, nothing else.

These recorded examples may help you get a feel for the data.
CC1(C)OCC(CO)O1 (centres undefined)
72.48%
CC1(C)OCC(C[Te]c2ccccc2)O1 (centres undefined)
31.66%
CC1(C)OCC(C[Se]c2ccccc2)O1 (centres undefined)
86.55%

Note to self: Activity recorded for CC1(C)OCC(CSc2ccccc2)O1 (centres undefined) was 74.88%

The measured values listed here are drawn from ChEMBL document CHEMBL3351647.
